- ASSAY COMMENT: Electrophysiological Assay: Current record was obtained by an automated patch clamp system IonWorks Quattro (Molecular Devices Corporation) in Population Patch Clamp mode. The operation was conducted in accordance with the operating procedure of the system. A Dulbecco's phosphate buffer containing calcium and magnesium (Sigma) was used as an extracellular fluid, and a low Cl-buffer (100 mM K-gluconate, 40 mM KCl, 3.2 mM MgCl2, 5 mM EGTA, 5 mM Hepes, pH 7.3) was used as an intracellular fluid. A test compound was dissolved in dimethylsulfoxide (DMSO) to prepare a 30 mM stock solution, so as to produce 4-fold serial dilutions with the extracellular fluid for attaining a DMSO concentration of 0.3% in measurement.The hNav 1.7/β1/β2 cells cultured to a 70-80% confluent state in a T150 flask (Sumilon) were washed with PBS and subsequently with versene (Invitrogen Corp.), and collected by allowing to react with 0.05% trypsin (Invitrogen Corp.) at 37° C. for 3 minutes. After washing with a culture medium, the resultant cells were suspended in an extracellular fluid at a concentration of 2x10-6 cells/ml so as to be used for the measurement. The cell membrane was perforated by using an intracellular fluid including 100 ug/ml amphotericin B (Sigma). Current response was obtained at a sampling frequency of 10 kHz. Leakage current correction was performed by applying a step pulse of -110 mV before a test pulse. The membrane potential was fixed at -100 mV for 5 seconds immediately before applying the test pulse. In order to check the state-dependency of the inhibiting activity of a test compound, the test pulse was applied as follows: After applying a depolarization pulse of -10 mV for 5 msec., the potential was fixed at -100 mV for 200 msec., a potential (V1/2) at which approximately 50% of channels are inactivated was held for 2 seconds, and a depolarization pulse of -10 mV was applied for 50 msec. Such a test pulse was applied before adding the test compound and after cultivation of 5 minutes and 30 seconds with a solution of the test compound gradually added by 3.5 ul at each time. Since IonWorks Quattro has a measuring electrode head (E-head) and an agent supplying head (F-head) separated from each other, the membrane potential was not clamped during the addition and the cultivation of the test compound.
- Assay type: cell-based
EXPERIMENTAL READOUT: pIC50
Give only the number. pIC50 is defined as minus log10 of concentration in molar units.

Q) Fill in reported pIC50 for this entry: Cc1c(O[C@H]2CCCC[C@@H]2c2c[nH]nc2N)ccc(S(=O)(=O)Nc2ccncn2)c1F
A) 7.00
